method: Blood level and bioavailability in rats (Experiment E-2)
protocol-conditions: rat, blood, po, 30 mg/kg

{"compound": "O=C(N[C@H]1Cc2ccccc2[C@H]2CCC[C@@H](C(=O)O)N2C1=O)[C@@H](S)Cc1ccccc1 [Comp. cpd. E-1, reference compound]", "bioavailability, %": 7.8}

----------
tested-on: ACE (Rattus norvegicus)
Construct: membrane fraction prepared from rat lung; from tissue; host or cells: rat lung, membrane fraction (method of Wu-Wong et al.)
Sequence (P47820 36-1313): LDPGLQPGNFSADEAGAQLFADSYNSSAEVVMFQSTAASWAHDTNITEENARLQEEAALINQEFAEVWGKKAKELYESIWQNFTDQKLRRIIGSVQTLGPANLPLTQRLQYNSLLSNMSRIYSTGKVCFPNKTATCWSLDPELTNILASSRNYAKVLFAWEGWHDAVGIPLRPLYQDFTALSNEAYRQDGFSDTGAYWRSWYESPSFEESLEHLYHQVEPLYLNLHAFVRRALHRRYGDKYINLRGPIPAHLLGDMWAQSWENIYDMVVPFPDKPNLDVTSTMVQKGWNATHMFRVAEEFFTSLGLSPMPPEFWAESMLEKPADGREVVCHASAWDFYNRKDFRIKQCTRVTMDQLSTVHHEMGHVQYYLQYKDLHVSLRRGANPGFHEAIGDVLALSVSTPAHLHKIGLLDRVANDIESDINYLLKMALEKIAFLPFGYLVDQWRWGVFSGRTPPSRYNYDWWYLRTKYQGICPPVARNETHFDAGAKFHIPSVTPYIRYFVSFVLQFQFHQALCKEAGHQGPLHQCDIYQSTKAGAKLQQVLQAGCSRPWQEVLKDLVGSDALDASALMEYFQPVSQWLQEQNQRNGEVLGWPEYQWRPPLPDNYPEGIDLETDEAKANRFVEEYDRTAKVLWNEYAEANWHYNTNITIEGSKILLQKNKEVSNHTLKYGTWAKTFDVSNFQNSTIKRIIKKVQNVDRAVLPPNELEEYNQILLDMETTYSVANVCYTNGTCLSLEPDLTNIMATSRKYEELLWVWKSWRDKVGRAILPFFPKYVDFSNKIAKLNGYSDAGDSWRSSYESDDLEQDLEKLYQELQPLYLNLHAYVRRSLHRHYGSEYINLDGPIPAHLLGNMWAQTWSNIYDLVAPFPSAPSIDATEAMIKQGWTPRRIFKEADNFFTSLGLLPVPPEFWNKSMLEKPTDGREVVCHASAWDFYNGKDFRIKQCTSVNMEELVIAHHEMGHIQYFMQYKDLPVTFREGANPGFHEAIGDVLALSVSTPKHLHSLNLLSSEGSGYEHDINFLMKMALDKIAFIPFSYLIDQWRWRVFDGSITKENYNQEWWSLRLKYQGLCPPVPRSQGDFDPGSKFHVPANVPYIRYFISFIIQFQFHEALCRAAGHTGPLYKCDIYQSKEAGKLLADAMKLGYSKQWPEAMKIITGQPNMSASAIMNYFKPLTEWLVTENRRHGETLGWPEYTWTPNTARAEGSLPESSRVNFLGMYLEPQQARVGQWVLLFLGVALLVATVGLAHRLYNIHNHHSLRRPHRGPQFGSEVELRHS
method: ACE inhibition activity (Experiment F-1)
Assay type: biochemical
protocol-conditions: rat lung membrane fraction, pH 8.3
From the text: As a source of the enzyme ACE, a membrane fraction prepared from rat lung in accordance with the method of Wu-Wong et al. (Characterization of Endthelin Converting Enzyme in Rat Lung., Jinshyum R. Wu-Wong, Gerald P. Budzik, Edward M, Devine and Terry J. Opgenorth, Biochem. Biophys. Res. Commun., 1990, 171, 1291-1296.) was used. […]
Reported IC50 values follow for various molecules

{"molecule": "O=C(N[C@H]1CCC[C@H]2SC[C@@H](C(=O)O)N2C1=O)[C@@H](S)Cc1ccc(-c2ccccc2)cc1 [Example F-20]", "IC50 (nM)": 16}
{"molecule": "O=C(O)CNC(=O)[C@@H](CS)Cc1ccc2c(c1)OCO2 [Comp cpd. F-1, reference compound]", "IC50 (nM)": 48}
{"molecule": "CC[C@H](C)[C@H](S)C(=O)N[C@H]1CCC[C@H]2SC[C@@H](C(=O)O)N2C1=O [Example C-8]", "IC50 (nM)": 5.2}
{"molecule": "CC[C@H](S)C(=O)N[C@H]1CCC[C@H]2SC[C@@H](C(=O)O)N2C1=O [Example F-24]", "IC50 (nM)": 13}
{"molecule": "CC(C)[C@H](S)C(=O)N[C@H]1CCC[C@H]2SC[C@@H](C(=O)O)N2C1=O [Example F-25]", "IC50 (nM)": 9}
{"molecule": "O=C(N[C@H]1CCC[C@H]2SC[C@@H](C(=O)O)N2C1=O)[C@@H](S)Cc1ccccc1 [Example F-17]", "IC50 (nM)": 13.4}
{"molecule": "O=C(N[C@H]1CCC[C@H]2SC[C@@H](C(=O)O)N2C1=O)[C@@H](S)Cc1cccs1 [Example F-22]", "IC50 (nM)": 13}
{"molecule": "O=C(N[C@H]1CCC[C@H]2SC[C@@H](C(=O)O)N2C1=O)[C@@H](S)Cc1ccc(F)cc1 [Example F-14]", "IC50 (nM)": 7.7}
{"molecule": "CC[C@@H](C)[C@H](S)C(=O)N[C@H]1CCC[C@H]2SC[C@@H](C(=O)O)N2C1=O [Example F-23]", "IC50 (nM)": 8}
{"molecule": "O=C(N[C@H]1CCC[C@H]2SC[C@@H](C(=O)O)N2C1=O)[C@@H](CS)Cc1ccccc1 [Example F-18]", "IC50 (nM)": 7}
{"molecule": "O=C(N[C@H]1Cc2ccccc2[C@H]2CCC[C@@H](C(=O)O)N2C1=O)[C@@H](S)Cc1ccccc1 [Comp. cpd. E-1, reference compound]", "IC50 (nM)": 10.6}
{"molecule": "COc1ccc(C[C@H](S)C(=O)N[C@H]2CCC[C@H]3SC[C@@H](C(=O)O)N3C2=O)cc1 [Example F-19]", "IC50 (nM)": 13.5}

----------
tested-on: ACE (Rattus norvegicus, UniProt P47820)
Construct: membrane fraction prepared from rat lung; from tissue; host or cells: rat lung, membrane fraction (method of Wu-Wong et al.)
method: ACE inhibition activity (Experiment D-1)
Format: biochemical
protocol-conditions: rat lung membrane fraction, pH 8.3
pIC50: −log10 of the molar value.
property-label: pIC50

{"compound": "COc1ccc(C[C@H](S)C(=O)N[C@H]2Cc3ccc(NS(C)(=O)=O)cc3[C@H]3CCC[C@@H](C(=O)O)N3C2=O)cc1 [Example D-6]", "test-value": 7.92}
{"compound": "COc1ccc(CC(S)C(=O)N[C@H]2Cc3ccccc3[C@H]3SC[C@H](C(=O)O)N3C2=O)cc1 (stereo partly drawn) [Comp. cpd.*^1]", "test-value": 7.96}
{"compound": "CS(=O)(=O)Nc1ccc2c(c1)[C@H]1CCC[C@@H](C(=O)O)N1C(=O)[C@@H](NC(=O)[C@@H](S)Cc1ccccc1)C2 [Example D-5]", "test-value": 7.77}

----------
The compounds listed here are annotated with their IC50.
tested-on: ACE (Rattus norvegicus, UniProt P47820)
Construct: membrane fraction prepared from rat lung; from tissue; host or cells: rat lung, membrane fraction (method of Wu-Wong et al.)
method: ACE inhibition activity using rat lung (Experiment A-2)
Type: biochemical
protocol-conditions: rat lung membrane fraction, borate buffer pH 8.3

{"compound": "CC(C)[C@H](S)C(=O)NC1CCc2ccc(-c3ccccc3)cc2N(CC(=O)O)C1=O (some centres unmarked)", "IC50 (nM)": 50}
{"compound": "O=C(O)CN1C(=O)C(NC(=O)[C@@H](S)Cc2ccccc2)CCc2ccc(-c3ccccc3)cc21 (some centres unmarked)", "IC50 (nM)": 50}
{"compound": "O=C(O)CN1C(=O)C(NC(=O)[C@@H](S)Cc2ccccc2)CCc2ccccc21 (some centres unmarked)", "IC50 (nM)": 10}
{"compound": "CC[C@H](C)[C@H](S)C(=O)N[C@H]1CCc2ccccc2N(CC(=O)O)C1=O", "IC50 (nM)": 11}
{"compound": "CC[C@H](C)[C@H](S)C(=O)NC1CCc2ccccc2N(CC(=O)O)C1=O (some centres unmarked)", "IC50 (nM)": 13}

----------
tested-on: ACE (Rattus norvegicus, UniProt P47820)
Construct: membrane fraction prepared from rat lung; from tissue; host or cells: rat lung, membrane fraction (method of Wu-Wong et al.)
method: ACE inhibition activity (Experiment E-1)
Type: biochemical
protocol-conditions: rat lung membrane fraction, pH 8.3
IC50 by entry:

{"molecule": "CC(C)[C@H](S)C(=O)N[C@H]1Cc2ccc(-c3ccccc3)cc2[C@H]2CCC[C@@H](C(=O)O)N2C1=O", "unit-abbrev": "nM", "IC50": 10}
{"molecule": "O=C(N[C@H]1Cc2ccc(-c3ccccc3)cc2[C@H]2CCC[C@@H](C(=O)O)N2C1=O)[C@@H](S)Cc1ccccc1", "unit-abbrev": "nM", "IC50": 10}
{"molecule": "O=C(N[C@H]1Cc2ccccc2[C@H]2CCC[C@@H](C(=O)O)N2C1=O)[C@@H](S)Cc1ccccc1 [Comp. cpd. E-1, reference compound]", "unit-abbrev": "nM", "IC50": 9}
{"molecule": "COc1ccc(C[C@H](S)C(=O)N[C@H]2Cc3ccc(-c4ccccc4)cc3[C@H]3CCC[C@@H](C(=O)O)N3C2=O)cc1", "unit-abbrev": "nM", "IC50": 11}
{"molecule": "CC[C@H](C)[C@H](S)C(=O)N[C@H]1Cc2ccc(-c3ccccc3)cc2[C@H]2CCC[C@@H](C(=O)O)N2C1=O", "unit-abbrev": "nM", "IC50": 11}
